Every entry's value here was drawn from ChEMBL document CHEMBL3988442.

tested on: Trypanosoma cruzi; test: Trypanosoma cruzi phosphomannomutase and mannose-1-phosphate guanylyltransferase assay; format: functional; design: scale not given: direction of the effect not stated beside the values; conditions: 10 µM
measure_name: Percent Effect (%)
Number in %, nothing else.

Study these solved cases before continuing.
compound: Cn1c(C2CC2)nc2c1CCN(CCS(=O)(=O)c1ccccc1)C2
measured_on: Trypanosoma cruzi
unit_tag: %
Percent Effect: 5.22
//
compound: CCn1nccc1CNC(=O)C1CCCC1
measured_on: Trypanosoma cruzi
unit_tag: %
Percent Effect: -7.38
//
compound: CCn1cc(NC(=O)NCC(c2cccc(F)c2)N(C)C)cn1 (configuration not stated)
measured_on: Trypanosoma cruzi
unit_tag: %
Percent Effect: -0.752
//
compound: COCC1CN(C(=O)c2ccoc2C)Cc2nccn2C1 (configuration not stated)
measured_on: Trypanosoma cruzi
unit_tag: %
Percent Effect: -6.3
//
compound: CC(C)c1csc(C2CCCN(C(=O)Cn3ccccc3=O)C2)n1 (configuration not stated)
measured_on: Trypanosoma cruzi
unit_tag: %
Percent Effect: 8.27
//
compound: CN(C)c1cncc(C2CCN(C(=O)CO)CC2)n1
measured_on: Trypanosoma cruzi
unit_tag: %
Percent Effect: 0.198

Using the record for Cc1cc(C)c2cc(CNCc3ccccc3)c3nn(C)c(=O)n3c2c1 , state its measured Percent Effect.
2.96

Using the record for Cc1nc2c(c(C)c1CC(=O)Nc1cccc(C#N)c1)c(=O)[nH]n2C , state its measured Percent Effect.
-4.8

Using the record for O=C(NCc1cc[nH]n1)N1CCCCC(N2CCCC2)C1 (configuration not stated) , state its measured Percent Effect.
6.44
